molecular target: cynomolgus monkey (cyno) TIGIT protein (cynomolgus monkey, UniProt A0A7N9I9V4 89-209); assay: SPR, captured mAb
Sequence (A0A7N9I9V4 entry or part of it): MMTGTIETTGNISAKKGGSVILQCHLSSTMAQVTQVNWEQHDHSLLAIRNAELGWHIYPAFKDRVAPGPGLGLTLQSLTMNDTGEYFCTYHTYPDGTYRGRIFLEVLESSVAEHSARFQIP
observation_type: kon (M⁻¹ s⁻¹)
Give the quantity in M⁻¹ s⁻¹, number only.

binder	recorded_result
rat6B2 (antibody, V domains shown, SD rat-derived; rat V domains as FR/HVR pieces; also called 1.6B2; Chimeric 1.6B2) VH: QVSLKESGPGILQPSHTLSLTCSFSGFSLSTYGMGVSWIRQPSEKGLEWLASIWWNGNTYYNPSLKSRLTVSKDASNDQAFLNVTSVDTTDTATYYCAHTGGAVITWFAYWGQGTLVTVSS VL: NIVMTQSPKSMSISVGDRVTMNCKASQSVGKNIAWYQQKPGQSPKLLIYYASNRYTGVPDRFTGGGSGTDFTLTINTVQAEDAAFFYCQHIYNSPYPFGTGTKLEIK	688000

Ask: Give the reported kon for this binder. h15C8.L1H8 (antibody, V domains shown, VH: F91Y against h15C8.L1H1; FR/HVR pieces) VH: EVQLVQSGAEVKKPGASVKVSCKASGYTFTEHSIYWLRQAPGQRLEIIGRIDPKNGRTYFVDKFKNRATLTTDTSASTAYMELSSLRSEDTAVYYCARIDGFYFDFWGQGTLVTVSS VL: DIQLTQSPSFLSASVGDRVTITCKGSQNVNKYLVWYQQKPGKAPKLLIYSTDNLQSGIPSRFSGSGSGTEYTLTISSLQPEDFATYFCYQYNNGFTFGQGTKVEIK
Result: 291000
